Sequence of the target: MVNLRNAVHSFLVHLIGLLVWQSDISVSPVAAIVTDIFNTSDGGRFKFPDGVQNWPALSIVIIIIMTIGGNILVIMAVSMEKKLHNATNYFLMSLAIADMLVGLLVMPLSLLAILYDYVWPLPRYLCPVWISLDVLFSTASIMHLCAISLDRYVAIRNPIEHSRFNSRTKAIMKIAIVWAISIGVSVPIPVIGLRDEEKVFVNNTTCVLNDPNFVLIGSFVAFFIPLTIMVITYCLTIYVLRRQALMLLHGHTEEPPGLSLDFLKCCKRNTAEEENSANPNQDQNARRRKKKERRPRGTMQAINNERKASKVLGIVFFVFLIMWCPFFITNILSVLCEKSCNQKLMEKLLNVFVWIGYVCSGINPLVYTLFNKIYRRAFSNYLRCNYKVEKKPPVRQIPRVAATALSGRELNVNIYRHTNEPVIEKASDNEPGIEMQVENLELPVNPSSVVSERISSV
Consider the following Ki data for the protein given by its sequence, collected from several reports.
Number only, in µM; omit the unit.

Query string: Name the reported Ki value associated with the compound COc1ccccc1Cc1c(N)nc(SCCN2CCN(Cc3ccccc3C(F)(F)F)CC2)nc1N
Result string: 0.0077

Query string: Name the reported Ki value associated with the compound COc1ccc(N2CC=C(c3ccc(Cl)c(Cl)c3)C2=O)cc1OCCN1CCC(C)CC1
Result string: 0.00316

Query string: Name the reported Ki value associated with the compound O=S(=O)(c1ccc(/C=C/c2ccc(F)cc2Cl)nc1)c1ccccc1F
Result string: 0.064

Query string: Name the reported Ki value associated with the compound COc1ccc(N2Cc3ccc(Cl)cc3C2=O)cc1OCCN1CCC(C)CC1
Result string: 0.02
